Catalogue of self-cleavage kobs at 640 uM GlcN6P values
B1: glmS ribozyme (parent)
chain: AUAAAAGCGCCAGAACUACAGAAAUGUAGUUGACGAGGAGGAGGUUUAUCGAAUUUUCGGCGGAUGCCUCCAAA

Variants of: B1
Test: self-cleavage kobs at 640 uM GlcN6P; higher = faster cleavage; RNA array
Conditions: with glucosamine-6-phosphate
Variants at the floor of the assay were thinned out.

Mutation Code: G7U U30A
self-cleavage kobs at 640 uM GlcN6P: < 1e-05 s⁻¹
--
Mutation Code: C11A A15G C16A G29U
self-cleavage kobs at 640 uM GlcN6P: 6.91e-05 s⁻¹
--
Mutation Code: C10U G37A G63A
self-cleavage kobs at 640 uM GlcN6P: < 1e-05 s⁻¹
--
Mutation Code: U47A C70U
self-cleavage kobs at 640 uM GlcN6P: 0.0018 s⁻¹
--
Mutation Code: U56A C70U C71U
self-cleavage kobs at 640 uM GlcN6P: 8.84e-05 s⁻¹
--
Mutation Code: G7C A36C U56A
self-cleavage kobs at 640 uM GlcN6P: < 1e-05 s⁻¹
--
Mutation Code: A42C G66C
self-cleavage kobs at 640 uM GlcN6P: < 1e-05 s⁻¹
--
Mutation Code: C8G C67A
self-cleavage kobs at 640 uM GlcN6P: < 1e-05 s⁻¹
--
Mutation Code: G13A U49A U69A
self-cleavage kobs at 640 uM GlcN6P: 0.00011 s⁻¹
--
Mutation Code: C8A C34U G40A A52U
self-cleavage kobs at 640 uM GlcN6P: < 1e-05 s⁻¹
--
Mutation Code: U31A G66U
self-cleavage kobs at 640 uM GlcN6P: 0.000206 s⁻¹
--
Mutation Code: C34A G35A A42G
self-cleavage kobs at 640 uM GlcN6P: < 1e-05 s⁻¹
--
Mutation Code: G7C C61A G63C
self-cleavage kobs at 640 uM GlcN6P: < 1e-05 s⁻¹
--
Mutation Code: G38A A42U G60U C71G
self-cleavage kobs at 640 uM GlcN6P: < 1e-05 s⁻¹
--
Mutation Code: U45G G59C
self-cleavage kobs at 640 uM GlcN6P: < 1e-05 s⁻¹
--
Mutation Code: A14U A15U G35A A39C G40U
self-cleavage kobs at 640 uM GlcN6P: < 1e-05 s⁻¹
--
Mutation Code: A14U G44U U54A G59C C68U
self-cleavage kobs at 640 uM GlcN6P: < 1e-05 s⁻¹
--
Mutation Code: G9U U49G
self-cleavage kobs at 640 uM GlcN6P: < 1e-05 s⁻¹
--
Mutation Code: C8A G32C
self-cleavage kobs at 640 uM GlcN6P: < 1e-05 s⁻¹
--
Mutation Code: U31C U65A
self-cleavage kobs at 640 uM GlcN6P: 0.000114 s⁻¹
--
Mutation Code: A15U U55A
self-cleavage kobs at 640 uM GlcN6P: 0.00147 s⁻¹
--
Mutation Code: G59A C70U
self-cleavage kobs at 640 uM GlcN6P: 4.24e-05 s⁻¹
--
Mutation Code: A39U U55A
self-cleavage kobs at 640 uM GlcN6P: 0.00564 s⁻¹
--
Mutation Code: G7A C67U
self-cleavage kobs at 640 uM GlcN6P: < 1e-05 s⁻¹
--
Mutation Code: C34A G37A A48U
self-cleavage kobs at 640 uM GlcN6P: < 1e-05 s⁻¹
--
Mutation Code: C16A C70U
self-cleavage kobs at 640 uM GlcN6P: 0.000192 s⁻¹
--
Mutation Code: U30C C71A
self-cleavage kobs at 640 uM GlcN6P: 3.17e-05 s⁻¹
--
Mutation Code: C8G A39U U46G U69G
self-cleavage kobs at 640 uM GlcN6P: < 1e-05 s⁻¹
--
Mutation Code: A33U G62C
self-cleavage kobs at 640 uM GlcN6P: < 1e-05 s⁻¹
--
Mutation Code: G41C U56G
self-cleavage kobs at 640 uM GlcN6P: 2.47e-05 s⁻¹
--
Mutation Code: G13A A33C
self-cleavage kobs at 640 uM GlcN6P: < 1e-05 s⁻¹
--
Mutation Code: C8G A15U U56C
self-cleavage kobs at 640 uM GlcN6P: < 1e-05 s⁻¹
--
Mutation Code: G51C A53G
self-cleavage kobs at 640 uM GlcN6P: < 1e-05 s⁻¹
--
Mutation Code: U47A A53C
self-cleavage kobs at 640 uM GlcN6P: 0.00103 s⁻¹
--
Mutation Code: A15C G37C C70U
self-cleavage kobs at 640 uM GlcN6P: < 1e-05 s⁻¹
--
Mutation Code: G7U A42G
self-cleavage kobs at 640 uM GlcN6P: < 1e-05 s⁻¹
--
Mutation Code: G29C G40C C58G
self-cleavage kobs at 640 uM GlcN6P: < 1e-05 s⁻¹
